Test system: CCRIS mutagenicity, Ames/micronucleus/aberration tests
Assay: CCRIS mutagenicity studies
Conditions: Test System: AMES SALMONELLA TYPHIMURIUM; Strain/Indicator: TA100; Metabolic Activation: HAMSTER, LIVER, S-9, AROCLOR 1254; Method: STANDARD PLATE
Activity calls are given as the source filed them. The rule behind the calls is not given here.
Use one of these outcomes when replying: active, inactive

Below are worked cases with known answers.
molecule | qualitative label
N#Cc1ccccc1 | inactive
C[C@H]1CCCC(=O)CCC/C=C/c2cc(O)cc(O)c2C(=O)O1 | inactive
O=C(CCc1ccc(O)cc1)c1c(O)cc(O)cc1O | inactive
CC(C)CCON=O | inactive
COc1cc([N+](=O)[O-])ccc1N=NC(C(C)=O)C(=O)Nc1ccccc1OC (configuration not stated) | inactive

Entry "O=C1c2ccccc2C(=O)c2ccccc21" : call = ?
inactive

Entry "O=NN1CCC[C@H]1c1cccnc1" : call = ?
inactive

Entry "Nc1ncc([N+](=O)[O-])s1" : call = ?
inactive

Entry "CNC(=O)Oc1ccccc1OC(C)C" : call = ?
inactive

Entry "C=C(C)C(=O)OCCOC(=O)C(=C)C" : call = ?
inactive

Entry "CCN(N=O)c1ccccc1" : call = ?
inactive

Entry "CN(C)CCCCl" : call = ?
active

Entry "Cc1cc(C)c(S(=O)(=O)O)cc1N=Nc1cc(S(=O)(=O)O)c2ccccc2c1O" : call = ?
inactive
